All values here come from patent US20240116985A1.

targetOfAssay: T1, beta-catenin in DLD1 TCF/LEF luciferase reporter cells (UniProt P35222 1-781)
T1 sequence (looked up): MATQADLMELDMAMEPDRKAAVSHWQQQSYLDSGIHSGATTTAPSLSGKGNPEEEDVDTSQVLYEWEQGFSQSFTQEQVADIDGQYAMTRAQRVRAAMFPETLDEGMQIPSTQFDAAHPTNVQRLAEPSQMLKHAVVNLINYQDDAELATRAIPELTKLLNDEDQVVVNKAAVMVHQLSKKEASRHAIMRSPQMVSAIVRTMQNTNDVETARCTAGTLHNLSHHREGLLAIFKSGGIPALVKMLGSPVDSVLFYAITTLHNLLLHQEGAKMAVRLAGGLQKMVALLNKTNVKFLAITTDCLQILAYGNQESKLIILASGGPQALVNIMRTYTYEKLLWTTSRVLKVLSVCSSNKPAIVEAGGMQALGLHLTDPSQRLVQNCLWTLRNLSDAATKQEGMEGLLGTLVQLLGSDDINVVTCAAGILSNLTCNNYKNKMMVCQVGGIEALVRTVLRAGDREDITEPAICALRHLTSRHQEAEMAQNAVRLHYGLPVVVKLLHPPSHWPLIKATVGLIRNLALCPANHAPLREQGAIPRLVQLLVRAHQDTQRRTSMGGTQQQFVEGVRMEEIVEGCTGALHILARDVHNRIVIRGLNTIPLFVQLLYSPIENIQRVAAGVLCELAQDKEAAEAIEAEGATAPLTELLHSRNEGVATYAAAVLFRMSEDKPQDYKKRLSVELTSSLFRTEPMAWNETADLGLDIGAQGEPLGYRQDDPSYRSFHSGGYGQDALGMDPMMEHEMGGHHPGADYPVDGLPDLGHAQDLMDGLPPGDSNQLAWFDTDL
assayName: cell-based or functional assay
Starred links: 1 amine or outer side, 2 acyl side, 3 side chain; linkers in the order of their positions; H or OH if unused. Positions of bridges follow the written chain, without caps; N, C: chain ends. Non-standard residues stand in square brackets, D forms with d. Primed or numbered codes have the meaning given here. PyrS2″ = (S)-3-amino-1-((pent-4-en-1-yloxy)carbonyl)pyrrolidine-3-carboxylic acid (stapling residue), C=CCCCOC(=O)N1CC[C@@](N[*:1])(C(=O)[*:2])C1; B5(18) = 2,2-bis(4-pentenyl)glycine (2-amino-2-(pent-4-en-1-yl)hept-6-enoic acid), stitching residue, C=CCCCC(CCCC=C)(N[*:1])C(=O)[*:2]; TfeGA = (S)-2-amino-3-((carboxymethyl)(2,2,2-trifluoroethyl)amino)propanoic acid, O=C([C@H](CN(CC(=O)[*:3])CC(F)(F)F)N[*:1])[*:2]; B5(3) = 2,2-bis(4-pentenyl)glycine (stitching residue), C=CCCCC(CCCC=C)(N[*:1])C(=O)[*:2]; Phe(2-Cl) = N[C@@H](Cc1ccccc1Cl)C(=O)O; Bta = N[C@@H](Cc1csc2ccccc12)C(=O)O; αAllylPro = C=CC[C@@]1(C(=O)O)CCCN1; tBuAla = CC(C)(C)C[C@H](N)C(=O)O; S8 = C=CCCCCCC[C@](C)(N)C(=O)O; hSer = N[C@@H](CCO)C(=O)O
observable: DLD1 4% Abs IC50

binder	observedResult
Ac-[αAllylPro]D[tBuAla][B5(18)]D[TfeGA]FAFN[PyrS2″][Phe(2-Cl)][Bta]Q-NH2 (staple 1-4, 4-11) [I-1008]	4.7 µM
Ac-[αAllylPro]D[tBuAla][B5(18)]DDAAFT[PyrS2″][Phe(2-Cl)][Bta]S-NH2 (staple 1-4, 4-11) [I-1015]	5.7 µM
Ac-[αAllylPro]D[tBuAla][B5(3)]D[TfeGA]AAFS[S8][Phe(2-Cl)][Bta][hSer]-NH2 (staple 1-4, 4-11; also: later-eluting HPLC isomer) [I-999]	5.6 µM

Q: Any idea what DLD1 4% Abs IC50 was measured for Ac-[αAllylPro]D[tBuAla][B5(3)]D[TfeGA]AAF[hSer][S8][Phe(2-Cl)][Bta][hSer]-NH2 (staple 1-4, 4-11) [I-1000] ?
Result: 1.9 µM
